Reported composite z-score is given for each of the following compounds.
test: small-molecule microarray binders of probe aShh, primary screen, biochemical, biotinylated probe, 635/667 nm fluorescence (AID 1114); settings: higher = more signal;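 note: probe is biotin-labelled aShh protein from a stem cell growth factor screen; measures binding of labelled protein to compounds printed on the slide; score merges feature fluorescence at 667 nm with signal-to-noise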

Some compounds with known composite z-score results, for comparison:
1. CO[C@H]1O[C@H](CO)[C@@H](OC(=O)Nc2ccc(C(F)(F)F)cc2)[C@H](OC(=O)Nc2ccc3c(c2)OCO3)[C@H]1OC(=O)Nc1ccc2c(c1)OCO2; 0.0437
2. CC1CC/C=C\[C@H]2OC34C=CCN(c5ccc6ccccc6c5)C(=O)[C@H]3N(C(CO)C(C)C)C(=O)[C@@H]4C2C(=O)O1 (some centres not stated); -0.164
3. C=CCNC(=O)[C@@H]1[C@H]2C(=O)O[C@H](c3ccccc3)[C@H](c3ccccc3)N2[C@H](c2ccccc2OCCO)[C@@]12C(=O)N(C(=O)OCCOC)c1ccc(C#CC3=CCCCC3)cc12; -0.0553
4. COc1cc(CO)cc(I)c1O[C@H]1C=C(C(=O)NCCO)C[C@@H](NCc2ccccc2F)[C@@H]1O; -0.138
5. COc1cc2c(cc1OC)CN(C(=O)[C@H]1[C@@H]3C(=O)O[C@@H](c4ccccc4)[C@@H](c4ccccc4)N3[C@@H](c3ccc(OCCO)cc3)[C@]13C(=O)Nc1ccc(C#CCCO)cc13)CC2; -0.0146
6. C=CCOC(=O)[C@H]1[C@@H]2C(=O)O[C@@H](c3ccccc3)[C@@H](c3ccccc3)N2[C@@H](c2ccc(OCCOC(=O)[C@H]3C[C@H]4C(=O)N[C@@H](CCCC[N+](C)(C)C)C(=O)N4[C@H]3c3cccc(OCCO)c3)cc2)[C@]12C(=O)Nc1ccc(I)cc12; -0.138
7. CCOC(=O)C[C@H]1[C@H](OC(=O)Cc2ccc3c(c2)OCO3)[C@@H](NC(=O)Cc2ccc(OC)cc2)c2cc(OCCCO)ccc2N1C(=O)c1ccccc1; 0.233
8. C[C@]12C(=O)N(CCCCCCO)[C@@H]3C(=O)N(c4ccc(Cl)cc4)CC=CC31O[C@@H]1/C=C\CCCOC(=O)C12 (some centres not stated); -0.0813

Please look at the following compound next.
Lookup: Entry under review: COc1ccc(C(O)C2C=CC3C(=O)N(Cc4ccccc4)C(=O)C3N2n2cnnc2)c2ccccc12 (configuration not stated) . Reported composite z-score?
Found: -0.195
